System: T98G
Experiment: MTT colorimetric assay, overall cell growth
Settings: Homo sapiens, 72 h, read-out: IC50 (µM) In Vitro Growth Inhibitory Concentrations (MTT Colorimetric Assay) T98G
Listed next: entries and their corresponding IC50.
Record the value in µM, omitting the unit from your answer.

The cases that follow already have their IC50 on record.
compound: CC(C)(C)OC(=O)Nc1ccc2c(c1)C(NC(=O)Nc1ccc(C#N)cc1)CC(C)(C)O2 (racemic)
unit-tag: µM
IC50: 26
--
compound: CC(C)(C)OC(=O)Nc1ccc2c(c1)C(NC(=O)Nc1ccc(Cl)cc1C(F)(F)F)CC(C)(C)O2 (racemic)
unit-tag: µM
IC50: 38
--
compound: CC(C)(C)OC(=O)Nc1ccc2c(c1)C(NC(=O)Nc1cc(C(F)(F)F)ccc1Cl)CC(C)(C)O2 (racemic)
unit-tag: µM
IC50: 38

Turning now to a further record.
Q) Returns the measured IC50 for the input compound. Input: CC(C)(C)OC(=O)Nc1ccc2c(c1)C(NC(=O)Nc1cc(F)cc(F)c1)CC(C)(C)O2 (racemic)
A) 14

----------
This listing pairs compounds with measured IC50.
Test system: T98G
Assay: MTT colorimetric assay, overall cell growth
Conditions: Homo sapiens, 72 h, read-out: IC50 (µM) In Vitro Growth Inhibitory Concentrations (MTT Colorimetric Assay) T98G

Below: 2 compounds and their reported IC50.
compound: CC(C)(C)OC(=O)Nc1ccc2c(c1)C(NC(=O)Nc1ccc(C(F)(F)F)cc1Cl)CC(C)(C)O2 (racemic) [Example 30]
IC50: 34 µM
--
compound: CC(C)(C)OC(=O)Nc1ccc2c(c1)C(NC(=O)Nc1ccc(C(F)(F)F)cc1)CC(C)(C)O2 (racemic) [Example 24]
IC50: 15 µM

Q) Data request, read-out IC50, for CC(C)(C)OC(=O)Nc1ccc2c(c1)C(NC(=O)Nc1cccc(C#N)c1)CC(C)(C)O2 (racemic) [Example 14]
A) 3 µM

Q) For the compound shown here, CC(C)(C)OC(=O)Nc1ccc2c(c1)C(NC(=O)Nc1ccccc1Cl)CC(C)(C)O2 (racemic) [Example 35] , give the reported IC50.
A) 100 µM

----------
System: T98G
Test: MTT colorimetric assay, overall cell growth
Conditions: Homo sapiens, 72 h, read-out: IC50 (µM) In Vitro Growth Inhibitory Concentrations (MTT Colorimetric Assay) T98G
IC50 values, listed per item
Please give a number only; it is taken to be in µM.

Worked examples, 2 compounds total:
compound: CC(C)(C)OC(=O)Nc1ccc2c(c1)C(NC(=O)Nc1cccc(C#N)c1)CCO2 (racemic)
recorded-endpoint: IC50
observed: 38

compound: CC(C)(C)OC(=O)Nc1ccc2c(c1)C(NC(=O)Nc1ccccc1[N+](=O)[O-])CC(C)(C)O2 (racemic)
recorded-endpoint: IC50
observed: 22

Query compound follows.
Q) What is its IC50 for T98G? Entry: CC(C)(C)OC(=O)Nc1ccc2c(c1)C(NC(=O)Nc1cc(Cl)cc(Cl)c1)CC(C)(C)O2 (racemic)
A) 12

----------
Listed next: entries and their corresponding IC50.
Test system: T98G
Assay: MTT colorimetric assay, overall cell growth
Settings: Homo sapiens, 72 h, read-out: IC50 (µM) In Vitro Growth Inhibitory Concentrations (MTT Colorimetric Assay) T98G

Q) Returns the measured IC50 for the input molecule. Input: CC(C)(C)OC(=O)Nc1ccc2c(c1)C(NC(=O)Nc1cccc(Cl)c1)CC(C)(C)O2 (racemic)
A) 20 µM

Q) # get_value(readout='IC50', item= CC(C)(C)OC(=O)Nc1ccc2c(c1)C(NC(=O)Nc1ccc(Cl)cc1)CCO2 (racemic) )
A) > 100 µM

Q) Item under review: CC(C)(C)OC(=O)Nc1ccc2c(c1)C(NC(=O)Nc1ccc(Cl)cc1)CC(C)(C)O2 (racemic) . Reported IC50?
A) 26 µM

----------
Tested on: T98G
Test: MTT colorimetric assay, overall cell growth
Conditions: Homo sapiens, 72 h, read-out: IC50 (µM) In Vitro Growth Inhibitory Concentrations (MTT Colorimetric Assay) T98G
List of IC50 values.
Please give a number only; it is taken to be in µM.

Here are 4 compounds together with their reported answers.
compound: CC(C)(C)OC(=O)Nc1ccc2c(c1)C(NC(=O)Nc1ccc(C#N)cc1)CCO2 (racemic)
recorded-endpoint: IC50
observed: 39

compound: CC(C)(C)OC(=O)Nc1ccc2c(c1)C(NC(=O)Nc1cc(C(F)(F)F)cc(C(F)(F)F)c1)CC(C)(C)O2 (racemic)
recorded-endpoint: IC50
observed: 5

compound: CC(C)(C)OC(=O)Nc1ccc2c(c1)C(NC(=O)Nc1ccc(Br)cc1)CC(C)(C)O2 (racemic)
recorded-endpoint: IC50
observed: 21

compound: CC(C)(C)OC(=O)Nc1ccc2c(c1)C(NC(=O)Nc1cccc(Br)c1)CC(C)(C)O2 (racemic)
recorded-endpoint: IC50
observed: 26

Q) Report IC50 for CC(C)(C)OC(=O)Nc1ccc2c(c1)C(NC(=O)Nc1ccccc1Cl)CCO2 (racemic) please.
A) 24

Q) Quick one: IC50 of CC(C)(C)OC(=O)Nc1ccc2c(c1)C(NC(=O)Nc1cccc(Cl)c1)CCO2 (racemic) ?
A) 29

Q) Param item = CC(C)(C)OC(=O)Nc1ccc2c(c1)C(NC(=O)Nc1ccc(Cl)c(C(F)(F)F)c1)CC(C)(C)O2 (racemic) ; retrieve measured IC50.
A) 23

----------
Test system: T98G
Test: MTT colorimetric assay, overall cell growth;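 also: growth inhibition of the human glioblastoma line measured by MTT reduction to formazan, optical density read on a spectrophotometer at 570 nm, untreated cells as control, nine concentrations from 10 nM to 100 µM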
Conditions: Homo sapiens, 72 h, read-out: IC50 (µM) In Vitro Growth Inhibitory Concentrations (MTT Colorimetric Assay) T98G
In this section we review reported IC50 values for a set of compounds.
// units = µM; emit number, no label

compound: CC(C)(C)OC(=O)Nc1ccc2c(c1)C(NC(=O)Nc1ccc([N+](=O)[O-])cc1)CC(C)(C)O2 (racemic)
test-system: T98G
observed: 26

Q) # get_value(readout='IC50', item= CC(C)(C)OC(=O)Nc1ccc2c(c1)C(NC(=O)Nc1cccc(C(F)(F)F)c1)CC(C)(C)O2 (racemic) )
A) 21

Q) Would you kindly share the measured IC50 for CC(C)(C)OC(=O)Nc1ccc2c(c1)C(NC(=O)Nc1ccccc1C#N)CC(C)(C)O2 (racemic) ?
A) 67

Q) Please give the measured IC50 for this compound: CC(C)(C)OC(=O)Nc1ccc2c(c1)C(NC(=O)Nc1cccc(F)c1)CC(C)(C)O2 (racemic)
A) 26
